Quick reference: hGLP1R cAMP Rel EC50 of the listed items.
Target: human GLP-1 receptor (GLP-1R) (human, UniProt P43220 24-463)
Assay: cell-based or functional assay
Numbered stars: 1 amine (or outer) side, 2 acyl side, 3 side chain; on linkers, the order of the positions; unused ones are H or OH. Square brackets hold non-standard residues; d marks the D form. Side chains are listed from the residue outwards. Ends that are not written are not given here. * marks the point of attachment. C20 diacid = O=C(O)CCCCCCCCCCCCCCCCCCC(=O)*; αMePhe(2-F) = C[C@](N)(Cc1ccccc1F)C(=O)O; γGlu = O=C(O)[C@H](CCC(=O)[*:2])N[*:1]; αMeF = C[C@](N)(Cc1ccccc1)C(=O)O; AEEA = NCCOCCOCC(=O)O; Aib = CC(C)(N)C(=O)O

// worked examples, hGLP1R cAMP Rel EC50 included
binder: YXEGTXTSDXSILLDKKAQXAFIEYLIEGGPSSGAPPPS (Y-Aib-EGT-αMeF-TSD-αMeF-SILLDKK((2-[2-(2-Amino-ethoxy)-ethoxy]-acetyl)2-(γ-Glu)-CO-(CH2)18-CO2H)AQ-Aib-AFIEYLIEGGPSSGAPPPS-NH2) [Example 131]
observedMeasurement: 0.156 nM

binder: Y[Aib]EGT[αMeF]TSDYSIXLDKKAQH[Aib]FIEYLIEGGPSSGAPPPS-NH2 (not fully specified (residues 13, 17); printed as Y-Aib-EGT-αMeF-TSDYSI-αMeF-LDKK((2-[2-(2-Amino-ethoxy)-ethoxy]-acetyl)2-(γ-Glu)-CO-(CH2)18-CO2H)AQH-Aib-FIEYLIEGGPSSGAPPPS-NH2) [Example 144]
observedMeasurement: 0.0608 nM

binder: Y[Aib]EGT[αMePhe(2-F)]TSDYSIXLDEKAQ[Aib]EFIVYLIEGGPSSGAPPPS-NH2 (not fully specified (residues 13, 17); printed as Y-Aib-EGT-αMeF(2F)-TSDYSI-αMeF-LDEK((2-[2-(2-Amino-ethoxy)-ethoxy]-acetyl)2-(γ-Glu)-CO-(CH2)18-CO2H)AQ-Aib-EFIVYLIEGGPSSGAPPPS-NH2) [Example 149]
observedMeasurement: 0.0916 nM

Input line: For HXEGTXTSDXSIXLDEKAQXEFIXYLIEGGPSSGAPPPS (H-Aib-EGT-αMeF(2F)-TSD-3Pal-SI-αMeF-LDEK((2-[2-(2-Amino-ethoxy)-ethoxy]-acetyl)2-(γ-Glu)-CO-(CH2)18-CO2H)AQ-Aib-EFI-(D-Glu)-YLIEGGPSSGAPPPS-NH2) [Example 190] , what is its reported hGLP1R cAMP Rel EC50?
Output line: 0.0241 nM

Input line: Now the same for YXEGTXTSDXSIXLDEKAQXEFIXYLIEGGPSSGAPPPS (Y-Aib-EGT-αMeF(2F)-TSD-4Pal-SI-αMeF-LDEK((2-[2-(2-Amino-ethoxy)-ethoxy]-acetyl)2-(γ-Glu)-CO-(CH2)18-CO2H)AQ-Aib-EFI-Aib-YLIEGGPSSGAPPPS-NH2) [Example 189]
Output line: 0.0608 nM

Input line: Now the same for Y[Aib]EGT[αMePhe(2-F)]TSDYSIXLDEKAQ[Aib]EFIAYLIEGGPSSGAPPPS-NH2 (not fully specified (residues 13, 17); printed as Y-Aib-EGT-αMeF(2F)-TSDYSI-αMeF-LDEK((2-[2-(2-Amino-ethoxy)-ethoxy]-acetyl)2-(γ-Glu)-CO-(CH2)18-CO2H)AQ-Aib-EFIAYLIEGGPSSGAPPPS-NH2) [Example 148]
Output line: 0.0626 nM

Input line: Now the same for YXEGTXTSDHSIXLDXKAQXTFIXYLIEGGPSSGAPPPS (Y-Aib-EGT-αMeF(2F)-TSDHSI-αMeF-LD-Dap-K((2-[2-(2-Amino-ethoxy)-ethoxy]-acetyl)2-(γ-Glu)-CO-(CH2)18-CO2H)AQ-Aib-TFI-(D-Glu)-YLIEGGPSSGAPPPS-NH2) [Example 173]
Output line: 1.23 nM

Input line: Now the same for Y[Aib]EGT[αMePhe(2-F)]TSDYSIXLDEKAQ[Aib]EFI[Aib]YLIEGGPSSGAPPPS-NH2 (not fully specified (residues 13, 17); printed as Y-Aib-EGT-αMeF(2F)-TSDYSI-αMeF-LDEK((2-[2-(2-Amino-ethoxy)-ethoxy]-acetyl)2-(γ-Glu)-CO-(CH2)18-CO2H)AQ-Aib-EFI-Aib-YLIEGGPSSGAPPPS-NH2) [Example 152]
Output line: 0.0915 nM

Input line: Now the same for YXEGTXTSDHSIXLDEKAQXTFIXYLIXGGPSSGAPPPS (Y-Aib-EGT-αMeF(2F)-TSDHSI-αMeF-LDEK((2-[2-(2-Amino-ethoxy)-ethoxy]-acetyl)2-(γ-Glu)-CO-(CH2)18-CO2H)AQ-Aib-TFI-(D-Glu)-YLI-(D-Glu)-GGPSSGAPPPS-NH2) [Example 164]
Output line: 15.6 nM

Input line: Now the same for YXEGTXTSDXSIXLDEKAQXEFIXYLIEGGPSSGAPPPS (Y-Aib-EGT-αMeF(2F)-TSD-αMeY-SI-αMeF-LDEK((2-[2-(2-Amino-ethoxy)-ethoxy]-acetyl)2-(γ-Glu)-CO-(CH2)18-CO2H)AQ-Aib-EFI-(D-Glu)-YLIEGGPSSGAPPPS-NH2) [Example 186]
Output line: 0.0939 nM

Input line: Now the same for YXEGTXTSDHSIXLDEKAQXHFIXYLIEGGPSSGAPPPS (Y-Aib-EGT-αMeF(2F)-TSDHSI-αMeF-LDEK((2-[2-(2-Amino-ethoxy)-ethoxy]-acetyl)2-(γ-Glu)-CO-(CH2)16-CO2H)AQ-Aib-HFI-(D-Glu)-YLIEGGPSSGAPPPS-NH2) [Example 177]
Output line: 6.79 nM

Input line: Now the same for Y[Aib]EGT[αMeF]TSDYSIXLDKK([AEEA-AEEA-γGlu-C20 diacid])AQ[Aib]AFIEYLIEAGPSSGAPPPS-NH2 (not fully specified (residue 13); printed as Y-Aib-EGT-αMeF-TSDYSI-αMeF-LDKK((2-[2-(2-Amino-ethoxy)-ethoxy]-acetyl)2-(γ-Glu)-CO-(CH2)18-CO2H)AQ-Aib-AFIEYLIEAGPSSGAPPPS-NH2) [Example 126]
Output line: 0.0715 nM

Input line: Now the same for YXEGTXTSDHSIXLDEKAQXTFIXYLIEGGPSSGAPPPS (Y-Aib-EGT-αMeF(2F)-TSDHSI-αMeF-LDEK((2-[2-(2-Amino-ethoxy)-ethoxy]-acetyl)2-(ϵK)-CO-(CH2)18-CO2H)AQ-Aib-TFI-(D-Glu)-YLIEGGPSSGAPPPS-NH2) [Example 175]
Output line: 1.11 nM

Input line: Now the same for Y[Aib]EGT[αMePhe(2-F)]TSD[αMeF]SIXLDEKAQ[Aib]EFIEYLIEGGPSSGAPPPS-NH2 (not fully specified (residues 13, 17); printed as Y-Aib-EGT-αMeF(2F)-TSD-αMeF-SI-αMeF-LDEK((2-[2-(2-Amino-ethoxy)-ethoxy]-acetyl)2-(γ-Glu)-CO-(CH2)18-CO2H)AQ-Aib-EFIEYLIEGGPSSGAPPPS-NH2) [Example 159]
Output line: 0.33 nM

Input line: Now the same for Y[Aib]EGT[αMeF]TSDYSIXLDKK([AEEA-AEEA-γGlu-C20 diacid])AQ[Aib]EFIEYLIEGGPSSG-NH2 (not fully specified (residue 13); printed as Y-Aib-EGT-αMeF-TSDYSI-αMeF-LDKK((2-[2-(2-Amino-ethoxy)-ethoxy]-acetyl)2-(γ-Glu)-CO-(CH2)18-CO2H)AQ-Aib-EFIEYLIEGGPSSG-NH2) [Example 123]
Output line: 0.0344 nM
